These data points were gathered from PubChem BioAssay (NCI).

# Tested on: K-562 leukemia
# Method description: NCI tumour cell line growth inhibition, 48 h
Exercise: state measured TGI for each of the molecules provided.

Inquiry: Requested field: TGI. Item: CNS(=O)(=O)NNS(=O)(=O)c1ccc(OC)cc1
Reply text: > 100 µM

Inquiry: Requested field: TGI. Item: O=C1Nc2nccnc2C(=O)N2CCC[C@@H]12
Reply text: > 100 µM

Inquiry: Requested field: TGI. Item: Cn1c2c(c3c(Cl)nncc31)Cc1ccccc1-2
Reply text: > 100 µM

Inquiry: Requested field: TGI. Item: CSCSCC(CO)NC(=O)/C(C)=C\c1c(C)[nH]c(=O)[nH]c1=O (stereo not given)
Reply text: > 250 µM

Inquiry: Requested field: TGI. Item: CSc1nc2c(c(=O)n1C)CN(C1CCCCC1)C(=O)C(c1ccccc1)N2 (stereo not given)
Reply text: > 100 µM

Inquiry: Requested field: TGI. Item: CCc1ccc(COC(=O)C2=C(C)NC(C)=C(C(=O)OCc3ccc(CC)cn3)C2C2=COCCO2)nc1
Reply text: 53.7 µM

Inquiry: Requested field: TGI. Item: [B-][P+](CC[P+]1([B-])[C@@H](C)[C@@H](O)[C@H](O)[C@@H]1C)(c1ccccc1)c1ccccc1OC (stereo not given in full)
Reply text: 70.8 µM

Inquiry: Requested field: TGI. Item: Cc1cccc(C)c1N1C(=O)C(=O)C(c2nc3ccccc3s2)/C(=N\N)C1=O (stereo not given)
Reply text: > 100 µM

Inquiry: Requested field: TGI. Item: CCN(CC)CCN(C)c1ccc(CO)c2c1C(=O)c1ccccc1S2=O (stereo not given)
Reply text: > 20.3 µM

Inquiry: Requested field: TGI. Item: CN1CCN(C(=O)COc2ccc(/C=C3\CC4C5CC=C6CC(Cl)CCC6(C)C5CCC4(C)C3=O)cc2)CC1 (stereo not given)
Reply text: > 100 µM

###

Exercise: state measured TGI for each of the compounds provided.
# Test system: UACC-257 melanoma
# Method description: NCI tumour cell line growth inhibition, 48 h
A number alone suffices; assume µM.

Inquiry: Requested field: TGI. Item: C=CCOC(=O)C1=C(C)NC2=N[C@H](CCCCCCCCC)C[C@@H]3CCC1N23 (stereo not given in full)
Reply text: 37.1

Inquiry: Requested field: TGI. Item: CCCCCC/C=C\CCCCCCCCCC1=C(CN2CCN(C)CC2)C(=O)C=C(OC)C1=O
Reply text: 28.6

Inquiry: Requested field: TGI. Item: O=C1c2ccccc2-c2c1c1ccccc1c(=O)n2CCCNCCn1c2c(c3ccccc3c1=O)C(=O)c1ccccc1-2
Reply text: 35

###

# Test system: HS 578T breast
# Method description: NCI tumour cell line growth inhibition, 48 h
Quantity: TGI

Inquiry: Requested field: TGI. Item: CCOC(=O)/C(=N/Nc1ccccc1)N1C(=S)C=C(C)NN(C)C1=S
Reply text: > 100 µM

Inquiry: Requested field: TGI. Item: O=C1/C(=C/c2ccc(Cl)cc2)CNC/C1=C\c1ccc(Cl)cc1
Reply text: > 41.7 µM

Inquiry: Requested field: TGI. Item: Nc1nc(NCCCO)cc(=O)[nH]1
Reply text: > 100 µM

Inquiry: Requested field: TGI. Item: Cn1cc(-c2cnn3c(N)c(Br)c(C4CCCNC4)nc23)cn1 (stereo unspecified)
Reply text: > 72.3 µM

Inquiry: Requested field: TGI. Item: Cc1cc2nc3ccccc3n2c2nc(N)ccc12
Reply text: > 100 µM

Inquiry: Requested field: TGI. Item: COc1ccccc1C(O)[C@@H]1C[C@@H]2[C@H]3CC[C@@](C)([C@@H]2O1)C3(C)C (stereo partly specified)
Reply text: 35.3 µM

Inquiry: Requested field: TGI. Item: COc1cccc(Nc2nc3ccccc3c3occc23)c1
Reply text: 29.7 µM

Inquiry: Requested field: TGI. Item: CCCCc1ccc(Nc2nc(OC)c3ncn(C4CC(O)C(CO)O4)c3n2)cc1 (stereo unspecified)
Reply text: 42 µM

Inquiry: Requested field: TGI. Item: OC(CN(CCCl)CCCl)C(O)C(O)C(O)CN(CCCl)CCCl (stereo unspecified)
Reply text: > 100 µM

Inquiry: Requested field: TGI. Item: CCCCCCCc1n(Cc2ccc3ccccc3c2)c2ccccc2[n+]1Cc1ccc2ccccc2c1
Reply text: 3.67 µM

Inquiry: Requested field: TGI. Item: O=[N+]([O-])c1ccc(-n2nc3ccc4c(no[n+]4[O-])c3n2)cc1
Reply text: > 100 µM
